- System: HOP-62 NSCLC
- test summary: NCI tumour cell line growth inhibition, 48 h
# maps each entry to its TGI
The reply should be a number in µM, with the unit left off.

Ask: Lookup: TGI / HOP-62 NSCLC / `CC1(C)[C@H]2Cc3cc4nc5ccccn5c4cc3[C@@H]1C2`
Reply: 39.7

Ask: One more compound: `O=C(Nc1cccc(-n2cc(-c3ccncc3)c(-c3ccc(Cl)c(O)c3)n2)c1)Nc1ccc(Cl)c(Cl)c1`
Reply: 17.6

Ask: Can you check `COC(=O)[C@]12CC[C@@H](C)[C@H](C)[C@@H]1C1=CC[C@@H]3[C@@](C)(CC#N)C4=C(C[C@@]3(C)[C@]1(C)CC2)OC[C@]4(C)C=O` next?
Reply: 36.6

Ask: Try CO/C(=C1/NC(=O)C(Cc2ccc(O)c(Br)c2)N(C)C(=O)C(C)NC(=O)CCC/C=C(\C)CCC(C)OC1=O)c1ccccc1 (centres undefined) next.
Reply: 1.18

Reference source for all entries: PubChem BioAssay (NCI)
